# Neut IC50 subtype A per entry
Biological target: RSV F protein of recombinant mKate-RSV, subtype A (strain A2) (Respiratory syncytial virus subtype A …, UniProt P03420 26-574)
Test: cell-based or functional assay

Binder	Neut IC50 subtype A
ADI-14498 (antibody, V domains shown, full-length IgG (yeast-expressed); also called Antibody Number 59; Ab# 59) VH: EVQLVESGPTLVKPTQTLTLTCTFSGFSLTTRGMGVGWIRQPPGRSLEWLAVIYWDGDVRYSPSLKGRLTITKDTPKNQVVLTMTNMDPVDTATYYCVHSDLYDRNAYYLHYFDFWGQGTLVTVSS VL: DIRLTQSPSSLSASVGDRVTITCRASQIIASYLNWYQQKPGKAPNLLIFAASSLQSGVPSRFRGSGSGTDFTLTISSLQPEDFATYYCQQSYSIPYTFGQGTKLEIK	> 10 µg/mL
ADI-14506 (antibody, V domains shown, full-length IgG (yeast-expressed); also called Antibody Number 67; Ab# 67) VH: QVQLVQSGAEVKKPGSSVKVSCKVAGGSFSNYAIAWLRQAPGQGLEWMGGIIPAFNRAMYARKFQDRVTITAYASTTTAYLDITGLRSEDTALYYCARPAGDFGDLKWVRSPFDYWGQGTLITVSS VL: DIVMTQTPGTLSVSPGERATLSCRASQDVGINLAWYQQKPGQAPRLLIYGASTRATDVPAKFSGSGSGTDFTLTISSLQSEDFGVYYCQEYNDWPPQLSFGPGTKVDIK	> 10 µg/mL
ADI-14509 (antibody, V domains shown) VH: QVQLVQSGSEVKKPGASVTLSCKASGYRFSNYGVSWVRQAPGQGLEWMGWISGYNGNIKYGNSLQGRVTLTTDTTTAYMEVTSLTSDDTAVYYCARDVPADGVHFMDVWGKGTTVTVSS VL: EIVLTQSPLSLPVTLGQPASISCRSSQSLVHSDTNTYLTWFQQRPGQSPRRLIYKVSHRDSGVPDRFSGSGSGTTFTLKIARVEAEDVGIYYCMEGSHWAPTFGQGTKVDIK	0.011 µg/mL

Entry source: patent US20250313612A1
